System: sheep red blood cells
Test: Hemolysis assay
Conditions: red cells of sheep, 1 h
Residues, ends and D or L forms follow the SMILES beside them.
measurement-kind: HC10 (concentration inducing 10% hemolysis) (µM)
Give the number; µM is assumed, so skip it.

Here is how some compounds turned out for HC10 (concentration inducing 10% hemolysis).
CC[C@H](C)[C@H](NC(=O)[C@H](CCCNC(=N)N)NC(=O)[C@H](CCCNC(=N)N)NC(=O)[C@H](CC(C)C)NC(=O)[C@H](Cc1ccccc1)NC(=O)[C@@H](N)CCCNC(=N)N)C(=O)N[C@@H](Cc1ccccc1)C(=O)N[C@@H](CCCCN)C(=O)N[C@@H](Cc1ccccc1)C(=O)N[C@@H](Cc1ccccc1)C(=O)N[C@@H](Cc1ccccc1)C(N)=O [HT5] (H-RFLRRIFKFFF-NH2)	12.5
CC[C@H](C)[C@H](NC(=O)[C@H](CCCNC(=N)N)NC(=O)[C@H](CCCNC(=N)N)NC(=O)[C@H](CC(C)C)NC(=O)[C@H](Cc1ccccc1)NC(=O)[C@H](Cc1ccccc1)NC(=O)[C@H](Cc1ccccc1)NC(=O)[C@@H](N)Cc1ccccc1)C(=O)N[C@@H](Cc1ccccc1)C(=O)N[C@@H](CCCNC(=N)N)C(N)=O [F-SHf(R^5)-R] (H-FFFFLRRIFR-NH2; N-terminus assumed)	36.5

Input: Look up HC10 (concentration inducing 10% hemolysis): CC[C@H](C)[C@H](NC(=O)[C@H](CCCNC(=N)N)NC(=O)[C@H](CCCNC(=N)N)NC(=O)[C@H](CC(C)C)NC(=O)[C@@H](N)Cc1ccccc1)C(=O)N[C@@H](Cc1ccccc1)C(=O)N[C@@H](Cc1ccccc1)C(=O)N[C@@H](Cc1ccccc1)C(=O)N[C@@H](Cc1ccccc1)C(N)=O [HT1] (H-FLRRIFFFF-NH2)
Output: 25.0

Input: Note, next up: CC[C@H](C)[C@H](NC(=O)[C@H](CCCNC(=N)N)NC(=O)[C@H](CCCNC(=N)N)NC(=O)[C@H](CC(C)C)NC(=O)[C@H](Cc1ccccc1)NC(=O)[C@H](Cc1ccccc1)NC(=O)[C@H](Cc1ccccc1)NC(=O)[C@@H](N)Cc1ccccc1)C(=O)N[C@@H](Cc1ccccc1)C(N)=O [F-SHf(R^5)] (H-FFFFLRRIF-NH2; N-terminus assumed)
Output: 7.9

* * *

Assay: MTT cytotoxicity assay
Type: cell-based, human
Settings: human, HEK293T cells, HEK293T, 1.57 µM; read-out: OD450, cytotoxicity (Fig 2a), replicates
Procedure: To determine the cytotoxicity of the peptides, we used the MTT (3-(4,5)-dimethylthiahiazo (-z-y1)-3,5-di-phenytetrazoliumromide) dye reduction assay against HEK293T cells. In brief, the 100 μL of cells in 96-well plate were incubated for 24 h at 37 °C, 5% CO2, and then peptide solutions (concentrations ranging from 100 to 0.39 μM) were added and further incubated for 72 h. MTT solution (5 mg/mL) was added and further incubated for 4 h. […]
Residues, ends and D or L forms follow the SMILES beside them.
measurement-kind: viability at 72 h, 1.57 µM (%)
Report as a plain number; the unit % is understood.

Input: Quick check: viability at 72 h, 1.57 µM of CC[C@H](C)[C@H](NC(=O)[C@H](CCCNC(=N)N)NC(=O)[C@H](CO)NC(=O)[C@H](CC(C)C)NC(=O)[C@H](Cc1ccccc1)NC(=O)[C@H](Cc1ccccc1)NC(=O)[C@@H](N)Cc1ccccc1)C(=O)N[C@@H](Cc1ccccc1)C(N)=O [SHf] (H-FFFLSRIF-NH2; N-terminus assumed) ?
Output: 97.8

* * *

Assay: MTT cytotoxicity assay
Format: cell-based, human
Settings: human, HEK293T cells, OD450, cytotoxicity (Fig 2a), replicates
Non-standard residues stand in square brackets, D forms with d. Residues, ends and D or L forms follow the SMILES beside them.
Listed here are compounds together with their documented viability at 72 h, 0.39 µM.
Just the number in %, nothing appended.

Here's what some known entries look like.
CC[C@H](C)[C@H](NC(=O)[C@H](CCCNC(=N)N)NC(=O)[C@H](CCCNC(=N)N)NC(=O)[C@H](CC(C)C)NC(=O)[C@H](Cc1ccccc1)NC(=O)[C@H](CCCNC(=N)N)NC(=O)[C@@H](N)CCCNC(=N)N)C(=O)N[C@@H](Cc1ccccc1)C(=O)N[C@@H](Cc1ccccc1)C(=O)N[C@@H](Cc1ccccc1)C(=O)N[C@@H](Cc1ccccc1)C(N)=O [HT3] (H-RRFLRRIFFFF-NH2; N-terminus assumed)	94
CC[C@@H](C)[C@@H](NC(=O)[C@@H](Cc1ccccc1)NC(=O)[C@@H](Cc1ccccc1)NC(=O)[C@@H](Cc1ccccc1)NC(=O)[C@H](N)Cc1ccccc1)C(=O)N[C@H](CCCNC(=N)N)C(=O)N[C@H](CCCNC(=N)N)C(=O)N[C@H](CC(C)C)C(=O)N[C@H](Cc1ccccc1)C(=O)N[C@H](CCCNC(=N)N)C(N)=O [RI-HT2] (H-[dF][dF][dF][dF][dI][dR][dR][dL][dF][dR]-NH2; N-terminus assumed)	102

For the next question, use this compound.
Input: Which viability at 72 h, 0.39 µM reading was recorded for the compound CC[C@H](C)[C@H](NC(=O)[C@H](CCCNC(=N)N)NC(=O)[C@H](CCCNC(=N)N)NC(=O)[C@H](CC(C)C)NC(=O)[C@H](Cc1ccccc1)NC(=O)[C@@H](N)CCCNC(=N)N)C(=O)N[C@@H](Cc1ccccc1)C(=O)N[C@@H](CCCNC(=N)N)C(=O)N[C@@H](Cc1ccccc1)C(=O)N[C@@H](Cc1ccccc1)C(=O)N[C@@H](Cc1ccccc1)C(N)=O [HT4] (H-RFLRRIFRFFF-NH2) ?
Output: 85.8

* * *

Test system: MRSA USA 300
Format: cell-based, Staphylococcus aureus
Non-standard residues stand in square brackets, D forms with d. Residues, ends and D or L forms follow the SMILES beside them.
measurement-kind: MIC Gram+ MRSA USA 300 (µM)
Return type: number; implicit unit µM.

Record excerpt, results attached:
CC[C@H](C)[C@H](NC(=O)[C@H](CCCNC(=N)N)NC(=O)[C@H](CCCNC(=N)N)NC(=O)[C@H](CC(C)C)NC(=O)[C@H](Cc1ccccc1)NC(=O)[C@H](Cc1ccccc1)NC(=O)[C@H](Cc1ccccc1)NC(=O)[C@@H](N)Cc1ccccc1)C(=O)N[C@@H](Cc1ccccc1)C(N)=O [F-SHf(R^5)] (H-FFFFLRRIF-NH2; N-terminus assumed)	3.13
CC[C@H](C)[C@H](NC(=O)[C@H](CCCNC(=N)N)NC(=O)[C@@H](CCCNC(=N)N)NC(=O)[C@H](CC(C)C)NC(=O)[C@H](Cc1ccccc1)NC(=O)[C@H](Cc1ccccc1)NC(=O)[C@H](Cc1ccccc1)NC(=O)[C@@H](N)Cc1ccccc1)C(=O)N[C@@H](Cc1ccccc1)C(N)=O [F-SHf(dR^5)] (H-FFFFL[dR]RIF-NH2; N-terminus assumed)	3.13

Kindly review the next molecule as well.
Input: # query: MIC Gram+ MRSA USA 300 of entry CC[C@H](C)[C@H](NC(=O)[C@H](CCCNC(=N)N)NC(=O)[C@H](CCCNC(=N)N)NC(=O)[C@H](CC(C)C)NC(=O)[C@H](Cc1ccccc1)NC(=O)[C@H](Cc1ccccc1)NC(=O)[C@H](Cc1ccccc1)NC(=O)[C@@H](N)Cc1ccccc1)C(=O)N[C@@H](Cc1ccccc1)C(=O)N[C@@H](CCCNC(=N)N)C(N)=O [F-SHf(R^5)-R] (H-FFFFLRRIFR-NH2; N-terminus assumed)
Output: 1.57

* * *

Test: MTT cytotoxicity assay
Assay type: cell-based, human
Conditions: human, HEK293T cells, OD450, cytotoxicity (Fig 2a), replicates
Non-standard residues stand in square brackets, D forms with d. Residues, ends and D or L forms follow the SMILES beside them.
// reported viability at 72 h, 0.78 µM for each item listed
Quick note: number first, unit second.

Known viability at 72 h, 0.78 µM results, listed for orientation:
CC[C@H](C)[C@H](NC(=O)[C@H](CCCNC(=N)N)NC(=O)[C@H](CCCNC(=N)N)NC(=O)[C@H](CC(C)C)NC(=O)[C@H](Cc1ccccc1)NC(=O)[C@H](Cc1ccccc1)NC(=O)[C@H](Cc1ccccc1)NC(=O)[C@@H](N)Cc1ccccc1)C(=O)N[C@@H](Cc1ccccc1)C(=O)N[C@@H](CCCNC(=N)N)C(N)=O [F-SHf(R^5)-R] (H-FFFFLRRIFR-NH2; N-terminus assumed)	26.2%
CC[C@H](C)[C@H](NC(=O)[C@H](CCCNC(=N)N)NC(=O)[C@H](CCCNC(=N)N)NC(=O)[C@H](CC(C)C)NC(=O)[C@H](Cc1ccccc1)NC(=O)[C@H](Cc1ccccc1)NC(=O)[C@H](Cc1ccccc1)NC(=O)[C@@H](N)Cc1ccccc1)C(=O)N[C@@H](Cc1ccccc1)C(=O)N[C@@H](CCCNC(=N)N)C(=O)N[C@@H](CCCNC(=N)N)C(N)=O [F-SHf(R^5)-RR] (H-FFFFLRRIFRR-NH2; N-terminus assumed)	45.9%
CC[C@H](C)[C@H](NC(=O)[C@H](CCCNC(=N)N)NC(=O)[C@H](CCCNC(=N)N)NC(=O)[C@H](CC(C)C)NC(=O)[C@@H](N)Cc1ccccc1)C(=O)N[C@@H](Cc1ccccc1)C(=O)N[C@@H](Cc1ccccc1)C(=O)N[C@@H](Cc1ccccc1)C(=O)N[C@@H](Cc1ccccc1)C(N)=O [HT1] (H-FLRRIFFFF-NH2)	87.3%
CC[C@H](C)[C@H](NC(=O)[C@H](CCCNC(=N)N)NC(=O)[C@H](CCCNC(=N)N)NC(=O)[C@H](CC(C)C)NC(=O)[C@H](Cc1ccccc1)NC(=O)[C@@H](N)CCCNC(=N)N)C(=O)N[C@@H](Cc1ccccc1)C(=O)N[C@@H](CCCNC(=N)N)C(=O)N[C@@H](Cc1ccccc1)C(=O)N[C@@H](Cc1ccccc1)C(=O)N[C@@H](Cc1ccccc1)C(N)=O [HT4] (H-RFLRRIFRFFF-NH2)	80%
CC[C@@H](C)[C@@H](NC(=O)[C@@H](Cc1ccccc1)NC(=O)[C@@H](Cc1ccccc1)NC(=O)[C@@H](Cc1ccccc1)NC(=O)[C@H](N)Cc1ccccc1)C(=O)N[C@H](CCCNC(=N)N)C(=O)N[C@H](CCCNC(=N)N)C(=O)N[C@H](CC(C)C)C(=O)N[C@H](Cc1ccccc1)C(=O)N[C@H](CCCNC(=N)N)C(N)=O [RI-HT2] (H-[dF][dF][dF][dF][dI][dR][dR][dL][dF][dR]-NH2; N-terminus assumed)	94.4%
CC[C@H](C)[C@H](NC(=O)[C@H](CCCNC(=N)N)NC(=O)[C@H](CCCNC(=N)N)NC(=O)[C@H](CC(C)C)NC(=O)[C@H](Cc1ccccc1)NC(=O)[C@@H](N)CCCNC(=N)N)C(=O)N[C@@H](Cc1ccccc1)C(=O)N[C@@H](Cc1ccccc1)C(=O)N[C@@H](Cc1ccccc1)C(=O)N[C@@H](Cc1ccccc1)C(N)=O [HT2] (H-RFLRRIFFFF-NH2)	94.2%

Input: Suppose we examine the compound CC[C@H](C)[C@H](NC(=O)[C@H](CCCNC(=N)N)NC(=O)[C@H](CCCNC(=N)N)NC(=O)[C@H](CC(C)C)NC(=O)[C@H](Cc1ccccc1)NC(=O)[C@H](Cc1ccccc1)NC(=O)[C@H](Cc1ccccc1)NC(=O)[C@@H](N)Cc1ccccc1)C(=O)N[C@@H](Cc1ccccc1)C(N)=O [F-SHf(R^5)] (H-FFFFLRRIF-NH2; N-terminus assumed) ; what viability at 72 h, 0.78 µM value has been reported?
Output: 89.7%

Input: // repeat for CC[C@H](C)[C@H](NC(=O)[C@H](CCCNC(=N)N)NC(=O)[C@H](CCCNC(=N)N)NC(=O)[C@H](CC(C)C)NC(=O)[C@H](Cc1ccccc1)NC(=O)[C@@H](N)CCCNC(=N)N)C(=O)N[C@@H](Cc1ccccc1)C(=O)N[C@@H](CCCCN)C(=O)N[C@@H](Cc1ccccc1)C(=O)N[C@@H](Cc1ccccc1)C(=O)N[C@@H](Cc1ccccc1)C(N)=O [HT5] (H-RFLRRIFKFFF-NH2) and report
Output: 79.4%

Input: Now the same for CC[C@H](C)[C@H](NC(=O)[C@H](CCCNC(=N)N)NC(=O)[C@H](CCCNC(=N)N)NC(=O)[C@H](CC(C)C)NC(=O)[C@H](Cc1ccccc1)NC(=O)[C@H](CCCNC(=N)N)NC(=O)[C@@H](N)CCCNC(=N)N)C(=O)N[C@@H](Cc1ccccc1)C(=O)N[C@@H](Cc1ccccc1)C(=O)N[C@@H](Cc1ccccc1)C(=O)N[C@@H](Cc1ccccc1)C(N)=O [HT3] (H-RRFLRRIFFFF-NH2; N-terminus assumed)
Output: 98.7%
